Test system: L-amino acid oxidase
Experiment: Substrate specificity of L-amino acid oxidase (enzyme activity measurement, H2O2 colorimetry)
Assay type: biochemical, Colletotrichum sp. M5073
Conditions: 5 m mole of the substrate, 0.007 U of the enzyme; 37° C., 10 minutes; L-Leucine = 100
PARAMETER MEASURED: Relative activity (%) on substrate
State the value, then name its unit.

# annotated cases, reported Relative activity (%) on substrate shown
COMPOUND: NCC(=O)O [L-Glycin]
Relative activity (%) on substrate: 0.0%
//
COMPOUND: N=C(N)NCCC[C@H](N)C(=O)O [L-Arginine]
Relative activity (%) on substrate: 39.9%
//
COMPOUND: N[C@@H](CC(=O)O)C(=O)O [L-Aspartic acid]
Relative activity (%) on substrate: 0.0%

[ask] May I ask what Relative activity (%) on substrate has been recorded for CC(C)C[C@H](N)C(=O)O [L-Leucine] ?
[reply] 100.0%

[ask] May I ask what Relative activity (%) on substrate has been recorded for CSCC[C@H](N)C(=O)O [L-Methionine] ?
[reply] 93.6%

[ask] May I ask what Relative activity (%) on substrate has been recorded for N[C@@H](Cc1c[nH]cn1)C(=O)O [L-Histidine] ?
[reply] 11.8%

[ask] May I ask what Relative activity (%) on substrate has been recorded for NCCCC[C@H](N)C(=O)O [L-Lysine] ?
[reply] 29.6%

[ask] May I ask what Relative activity (%) on substrate has been recorded for N[C@@H](Cc1ccc(O)cc1)C(=O)O [L-Tyrosine] ?
[reply] 22.2%

[ask] May I ask what Relative activity (%) on substrate has been recorded for CC[C@H](C)[C@H](N)C(=O)O (racemic) [DL-Isoleucine] ?
[reply] 15.3%

[ask] May I ask what Relative activity (%) on substrate has been recorded for NC(Cc1c[nH]c2ccccc12)C(=O)O (racemic) [DL-Tryptophan] ?
[reply] 27.1%

[ask] May I ask what Relative activity (%) on substrate has been recorded for N[C@@H](CO)C(=O)O [L-Serine] ?
[reply] 0.0%

[ask] May I ask what Relative activity (%) on substrate has been recorded for N[C@@H](CCC(=O)O)C(=O)O [L-Glutamic acid] ?
[reply] 0.0%

---

Below, each entry is listed alongside its reported Relative activity (%) with additive.
Test system: L-amino acid oxidase
Assay: Inhibition and activation of L-amino acid oxidase by metallic ions or other additives
Assay type: biochemical, Colletotrichum sp. M5073
Conditions: 1 mM additive, 0.01 U of the enzyme; None = 100
I only need the number, in %, no unit after it.

# annotated cases, reported Relative activity (%) with additive shown
RECORD SMILES: [Cl-].[Cl-].[Zn+2]
TARGET DESC: L-amino acid oxidase
Relative activity (%) with additive: 94.2
//
RECORD SMILES: [N-]=[N+]=[N-].[Na+]
TARGET DESC: L-amino acid oxidase
Relative activity (%) with additive: 100
//
RECORD SMILES: [Cl-].[Li+]
TARGET DESC: L-amino acid oxidase
Relative activity (%) with additive: 97.5
//
RECORD SMILES: [Cl-].[Cl-].[Co+2]
TARGET DESC: L-amino acid oxidase
Relative activity (%) with additive: 50.6
//
RECORD SMILES: [Cl-].[Cl-].[Mg+2]
TARGET DESC: L-amino acid oxidase
Relative activity (%) with additive: 99.2

[ask] May I ask what Relative activity (%) with additive has been recorded for Cl.N ?
[reply] 97.1

[ask] May I ask what Relative activity (%) with additive has been recorded for [Ba+2].[Cl-].[Cl-] ?
[reply] 97.1

[ask] May I ask what Relative activity (%) with additive has been recorded for O=C(O)CN(CCN(CC(=O)O)CC(=O)O)CC(=O)O ?
[reply] 100

[ask] May I ask what Relative activity (%) with additive has been recorded for [Cl][Mn][Cl] ?
[reply] 97.1

[ask] May I ask what Relative activity (%) with additive has been recorded for [Ca+2].[Cl-].[Cl-] ?
[reply] 95.4

[ask] May I ask what Relative activity (%) with additive has been recorded for [F-].[Na+] ?
[reply] 97.9
